# Tested Target: sodium-proton exchanger of subtype 3 (NHE3) (Homo sapiens, UniProt P48764)
# Construct: expressed in transfected cells
# Sequence (P48764 26-834, species assumed): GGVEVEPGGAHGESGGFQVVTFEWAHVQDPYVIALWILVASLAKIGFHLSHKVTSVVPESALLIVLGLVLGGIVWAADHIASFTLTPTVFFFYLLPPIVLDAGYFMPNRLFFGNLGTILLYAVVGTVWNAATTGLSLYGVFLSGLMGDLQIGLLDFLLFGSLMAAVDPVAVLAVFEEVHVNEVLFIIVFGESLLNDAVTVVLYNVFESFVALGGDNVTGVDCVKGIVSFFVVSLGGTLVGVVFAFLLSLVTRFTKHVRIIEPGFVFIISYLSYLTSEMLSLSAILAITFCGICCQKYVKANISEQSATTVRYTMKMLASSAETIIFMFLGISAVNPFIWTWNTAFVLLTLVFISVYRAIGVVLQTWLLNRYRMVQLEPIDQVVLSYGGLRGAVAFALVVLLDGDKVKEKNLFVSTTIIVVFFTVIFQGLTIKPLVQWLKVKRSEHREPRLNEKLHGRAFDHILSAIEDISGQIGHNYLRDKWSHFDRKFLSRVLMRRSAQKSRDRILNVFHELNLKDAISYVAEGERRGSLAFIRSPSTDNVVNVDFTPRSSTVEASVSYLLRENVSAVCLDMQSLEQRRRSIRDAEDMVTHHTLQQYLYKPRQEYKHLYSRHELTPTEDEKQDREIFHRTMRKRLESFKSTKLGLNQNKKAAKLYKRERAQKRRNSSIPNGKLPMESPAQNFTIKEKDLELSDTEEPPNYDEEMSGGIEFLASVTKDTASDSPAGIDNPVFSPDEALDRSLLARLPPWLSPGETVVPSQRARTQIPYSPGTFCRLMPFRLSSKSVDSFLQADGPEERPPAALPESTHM
# Protocol Details: Recovery of intracellular pH (pHi) after acidification in LAP1 cells stably expressing NHE3 (BCECF fluorescence, FLIPR)
# Type: cell-based
# Cond: LAP1 cells stably expressing NHE3; pH recovery after acidification; range 1 is % inhibition at 10 μM; read-out: Activity range (inhibitory effect on NHE3)
Quantity Measured: IC50

For orientation, consider the following solved cases.
Compound | Tested Target | IC50
Cc1nnc(C)n1-c1ccc(O[C@H]2c3cc(Cl)cc(F)c3C[C@@H]2N2CC[C@@H](O)C2)c(F)c1 | sodium-proton exchanger of subtype 3 (NHE3) (Homo sapiens, UniProt P48764) | < 1 µM
NS(=O)(=O)c1ccc(O[C@H]2c3cc(Cl)cc(Cl)c3C[C@@H]2N2CCCC2)cc1 | sodium-proton exchanger of subtype 3 (NHE3) (Homo sapiens, UniProt P48764) | < 1 µM
Cc1nn(C)c(C)c1-c1ccc(O[C@H]2c3cc(Cl)cc(Cl)c3C[C@@H]2N2CC[C@@H](O)C2)cc1 | sodium-proton exchanger of subtype 3 (NHE3) (Homo sapiens, UniProt P48764) | 1 to 10 µM
c1cc(CN2CCCCC2)cc(O[C@@H]2c3ccccc3C[C@H]2N2C[C@H]3CNC[C@H]3C2)c1 (racemic) | sodium-proton exchanger of subtype 3 (NHE3) (Homo sapiens, UniProt P48764) | 1 to 10 µM
CCn1c(C)nn(-c2ccc(O[C@H]3c4cc(Cl)cc(Cl)c4C[C@@H]3N3CC[C@@H](O)C3)cc2)c1=O | sodium-proton exchanger of subtype 3 (NHE3) (Homo sapiens, UniProt P48764) | 1 to 10 µM
O=C1CCC(=O)N1c1ccc(O[C@H]2c3cc(Cl)cc(Cl)c3C[C@@H]2N2CC[C@@H](O)C2)cc1 | sodium-proton exchanger of subtype 3 (NHE3) (Homo sapiens, UniProt P48764) | < 1 µM
CC(=O)Nc1cccc(O[C@H]2c3cc(Cl)cc(Cl)c3C[C@@H]2N2CCNCC2)c1 [Example 665] | sodium-proton exchanger of subtype 3 (NHE3) (Homo sapiens, UniProt P48764) | < 1 µM
Fc1ccc(O[C@@H]2c3ccccc3C[C@H]2N2C[C@H]3CNC[C@H]3C2)c(F)c1 (racemic) | sodium-proton exchanger of subtype 3 (NHE3) (Homo sapiens, UniProt P48764) | 1 to 10 µM

Inquiry: Can you look up the measured IC50 of Cc1c(O[C@H]2c3cc(Cl)cc(F)c3C[C@@H]2N2CC[C@@H](O)C2)ccc(-n2c(C)nnc2C)c1C for me?
Reply text: < 1 µM

Inquiry: Can you look up the measured IC50 of CS(=O)(=O)c1ccc(O[C@H]2c3cc(Cl)cc(Cl)c3C[C@@H]2N2CCC3(CCNC3)C2)cc1 (mixture of isomers) for me?
Reply text: < 1 µM

Inquiry: Can you look up the measured IC50 of c1ccc2c(c1)C[C@@H](N1C[C@H]3CNC[C@H]3C1)[C@@H]2Oc1ccc2ccncc2c1 (racemic) for me?
Reply text: 1 to 10 µM

Inquiry: Can you look up the measured IC50 of CC(=O)Nc1cccc(O[C@@H]2c3ccccc3C[C@H]2N2CCC[C@H](N)C2)c1 (racemic) for me?
Reply text: 1 to 10 µM

This collection of values is drawn from patent US8822449B2.
